biological target: Glucocorticoid receptor (Homo sapiens) (UniProt P04150); experiment: GR-EFC Redistribution (AID 451); settings: CHO-K1 GR-EFC translocation, beta-gal luminescence, 2 h; note: potency is the fitted concentration of half-maximal effect
Sequence (P04150 whole entry, looked up): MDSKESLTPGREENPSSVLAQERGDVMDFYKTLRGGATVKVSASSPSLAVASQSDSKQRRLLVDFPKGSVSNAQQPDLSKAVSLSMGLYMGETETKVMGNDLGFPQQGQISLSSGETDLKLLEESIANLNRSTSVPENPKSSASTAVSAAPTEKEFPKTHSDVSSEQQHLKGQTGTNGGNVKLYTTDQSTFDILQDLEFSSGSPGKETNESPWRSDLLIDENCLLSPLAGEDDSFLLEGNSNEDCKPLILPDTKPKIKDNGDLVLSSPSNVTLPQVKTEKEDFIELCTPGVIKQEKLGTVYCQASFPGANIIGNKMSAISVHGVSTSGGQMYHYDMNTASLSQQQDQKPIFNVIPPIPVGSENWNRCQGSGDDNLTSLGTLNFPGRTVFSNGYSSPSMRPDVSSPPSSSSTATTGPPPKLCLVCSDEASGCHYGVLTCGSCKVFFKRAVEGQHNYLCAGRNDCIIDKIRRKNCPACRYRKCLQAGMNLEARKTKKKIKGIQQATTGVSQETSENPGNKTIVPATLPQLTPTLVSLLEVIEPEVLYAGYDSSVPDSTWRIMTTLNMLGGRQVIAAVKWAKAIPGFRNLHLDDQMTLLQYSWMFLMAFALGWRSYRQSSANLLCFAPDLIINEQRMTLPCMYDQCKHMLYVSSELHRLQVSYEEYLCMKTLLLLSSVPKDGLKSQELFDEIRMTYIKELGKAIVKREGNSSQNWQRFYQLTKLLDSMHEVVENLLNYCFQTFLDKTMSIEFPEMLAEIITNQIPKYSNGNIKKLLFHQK
The source made the active and inactive calls. Calls come from the whole dose curve.
Measure: Potency

Field: example entries. Status: answers known.
| Smiles entry | Potency |
| --- | --- |
| CCCN(CCC)C(=O)Cc1c(-c2ccc(Cl)cc2)nc2c(Cl)cc(Cl)cn12 | > 46 µM (inactive) |
| O=C(Oc1ccccc1)N1CCC2(CC1)CN(Cc1ccncc1)C2 | > 46 µM (inactive) |

*Q* State the recorded Potency for this entry: CCN1C[C@@]2(COC)CC[C@H](OC)[C@]34[C@@H]1[C@]1(OCO[C@@]15C[C@@H](OC)C1C[C@H]3[C@H]5[C@@H]1OC)[C@H](O)[C@@H]24
*A* > 20.6 µM (inactive)

*Q* # lookup: Potency of COc1ccc(NC(=O)N2CCC3(CC2)CCN(C(=O)Oc2ccccc2)CC3)cc1
*A* > 46 µM (inactive)

*Q* May I ask what Potency has been recorded for CN1CCCC2(CCN(C(=O)c3ccco3)CC2)C1 ?
*A* > 46 µM (inactive)

*Q* Given the entry CN1CCc2cc3c(cc2[C@@H]1O)OCO3 , report its measured Potency.
*A* > 20.6 µM (inactive)

*Q* Would you kindly share the measured Potency for c1csc(CN2CC[C@@]3(CCCNC3)C2)n1 ?
*A* > 46 µM (inactive)

----------
assay: Cell Viability - LYMP2-002 (AID 977); conditions: LYMP2-002 lymphoblastoid cell viability, qHTS; series mostly up to 92.2 µM;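 note: compound exposure lasted 24 h at 37 °C; plate controls were DMSO only for no effect and 92 µM tetraoctylammonium bromide for full effect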
Inconclusive results are not listed. Active and inactive are the calls of the source. The call rests on the fitted dose curve; in most records, active means well fitted cell-killing curve with a large enough effect; inconclusive means small, poorly fitted or top-dose-only effect; inactive means flat fitted curve, though single readings scatter.
Could you please pick one outcome from this set? T for active, F for inactive

*Q* Call for entry CCSC(=O)Cl :
*A* F

*Q* For Nc1ccc(Br)cc1 , what call appears in the results of this test?
*A* F

*Q* // param item: Nc1ccccc1Cl ; yields the recorded call
*A* F

*Q* Check the results log: what was the call for CCCSC(=O)Cl ?
*A* F

*Q* Test call, this compound: CCCCCCCCCc1ccc(O)cc1
*A* F

*Q* Would you mind telling me which call this test gave CCC[CH2][Sn]([Cl])([Cl])[Cl] ?
*A* F

*Q* Please indicate how the test categorized O=C(Cl)C(Cl)(Cl)Cl .
*A* F

*Q* Status in this test for C[C@]12CC[C@H]3[C@@H](CCC4=CC(=O)CC[C@@]43C)[C@@H]1CC[C@@H]2O ?
*A* F

*Q* # lookup: test call for CCOc1ccc(N)cc1
*A* F

*Q* Can you look up the reported call for C=CC(=O)OCC for me?
*A* F

*Q* Which result was noted for this compound in the test: C=CCc1ccc2c(c1)OCO2
*A* F

*Q* Given CCCOC(=O)c1ccccc1C(=O)OCCC , state the outcome it received in this test.
*A* F

*Q* Name the outcome recorded for ClC(Cl)=C(c1ccc(Cl)cc1)c1ccc(Cl)cc1 in the assay.
*A* F

*Q* Which outcome was entered for the compound C=C(C)C(=O)OCC1CO1 (stereo not given) in this test?
*A* F

*Q* // param item: CN=C=S ; yields the recorded call
*A* F

*Q* Could you kindly confirm the outcome this assay logged for ClCBr ?
*A* F

*Q* Could you please tell me the result logged for CCCC(=O)Cl in this assay?
*A* F

*Q* Each compound tested received a call. Report the one for C1CCC2CCCCC2C1 (stereo not given) .
*A* F

*Q* Which outcome was entered for the compound C/C=C/c1ccc2c(c1)OCO2 in this test?
*A* F

*Q* Hey, what did the test say about Cc1cccc(C#N)c1 ?
*A* F

*Q* Which result was noted for this compound in the test: c1ccc2c(c1)CCCC2
*A* F

*Q* Hello, I am checking results. What call was entered for CC(C)(c1ccccc1)c1ccc(O)cc1 ?
*A* F

*Q* Called result for c1ccc(OP(Oc2ccccc2)Oc2ccccc2)cc1
*A* F

*Q* Outcome? COc1ccc(N)cc1
*A* F

----------
experiment: qHTS Assay for Lipid Storage Modulators (AID 1519); settings: Drosophila S3 cells, BODIPY lipid droplet/cell ratio, laser cytometry; at 57.5 µM (top of the series); cells loaded with oleic acid; note: % is set by controls: 0 for no effect and ±100 for the full control effect
Records with an inconclusive call do not appear.
Quick reference for activity change, negative = inhibition among some molecules
Value expressed in %; do not type the unit.

| Molecule | Measure | Observed value |
| --- | --- | --- |
| COc1cc2c(cc1OC)[C@@H]1C(=O)c3ccc(O)c(CC=C(C)C)c3OC1CO2 (some centres undefined) | activity change, negative = inhibition | 7.74 |
| CC(C)NC(=O)N1CC[C@@]2(CCCNC2)C1 | activity change, negative = inhibition | 0.953 |
| CC1=C2C3OC(=O)[C@H](C)[C@H]3CC[C@@]2(C)C=CC1=O (some centres undefined) | activity change, negative = inhibition | 2.8 |
| N#CC(O[C@@H]1OC(COC2OC(CO)C(O)C(O)[C@@H]2O)C(O)C(O)C1O)c1ccccc1 (some centres undefined) | activity change, negative = inhibition | 2.68 |
| COc1cc(OC)c2c(c1)OC(c1ccc(OC)c(OC)c1)C(O)C2 (centres undefined) | activity change, negative = inhibition | 10.8 |

Switching to the query record.
*Q* Fill blank: measured activity change, negative = inhibition of the molecule C[C@H]1C(=O)O[C@H]2CCN3CC=C(COC(=O)[C@](C)(O)[C@@]1(C)O)C23 (some centres undefined) is ____.
*A* -4.35

----------
# reported Potency; entries follow
Assay: VSVG counterscreen qHTS to identify inhibitors of SARS-CoV-2 cell entry (AID 1645847); note: potency is the fitted concentration of half-maximal effect; nearly all actives have a fitted effect of over 65% in size
Conditions: VSV-G pseudotyped particle entry, luciferase; series mostly up to 57.2 µM
From the text: Assay Provider: Wei Zheng, Ph.D. National Center for Advancing Translational Sciences, National Institute of Health, Rockville, MD. SARS-CoV-2 spike protein, within the viral envelope, mediates viral attachment and infection of host cells. The SARS-CoV-2 spike protein specifically binds to the host receptor ACE2 (Angiotensin-converting enzyme 2). […] 11. […] Read luminescence signal (ViewLux plate reader, PerkinElmer). […]
Records with an inconclusive call do not appear. Activity calls are given as the source filed them. The call rests on the fitted dose curve.

| Compound | Measure | Observed value |
| --- | --- | --- |
| COc1ccc2[nH]c3c(c2c1)CCN[C@]31CS[C@@H]2c3c(OC(C)=O)c(C)c4c(c3[C@H](COC1=O)N1[C@@H]2[C@H]2c3c(cc(C)c(OC)c3O)C[C@@H]([C@@H]1O)N2C)OCO4 | Potency | 3.5 nM (active) |

*Q* Give its Potency value. Item: C=C(NC(=O)C(=C)NC(=O)c1csc(C2=N[C@H]3c4csc(n4)[C@H]4NC(=O)c5csc(n5)[C@H]([C@@](C)(O)[C@@H](C)O)NC(=O)[C@H]5CSC(=N5)C(=CC)NC(=O)[C@H]([C@@H](C)O)NC(=O)c5csc(n5)[C@]3(CC2)NC(=O)[C@H](C)NC(=O)C(=C)NC(=O)[C@H](C)NC(=O)[C@H](C(C)CC)N[C@@H]2C=Cc3c([C@H](C)O)cc(nc3[C@H]2O)C(=O)O[C@@H]4C)n1)C(N)=O (some centres not stated)
*A* 1710 nM (active)

----------
molecular target: Voltage-gated inwardly rectifying potassium channel KCNH2 (Homo sapiens) (UniProt Q12809); assay: qHTS Assay for Small Molecule Inhibitors of the Human hERG Channel Activity (AID 588834); details: U2OS BacMam hERG, FluxOR thallium flux fluorescence; series mostly up to 92.2 µM;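 note: U2OS cells transduced with hERG by BacMam; top concentration of the series differs between compounds; % is set by controls: 0 for no effect and ±100 for the full control effect; lower thallium flux fluorescence means stronger hERG block; nearly all actives have a fitted effect of over 50% in size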
Sequence (Q12809 whole entry, looked up): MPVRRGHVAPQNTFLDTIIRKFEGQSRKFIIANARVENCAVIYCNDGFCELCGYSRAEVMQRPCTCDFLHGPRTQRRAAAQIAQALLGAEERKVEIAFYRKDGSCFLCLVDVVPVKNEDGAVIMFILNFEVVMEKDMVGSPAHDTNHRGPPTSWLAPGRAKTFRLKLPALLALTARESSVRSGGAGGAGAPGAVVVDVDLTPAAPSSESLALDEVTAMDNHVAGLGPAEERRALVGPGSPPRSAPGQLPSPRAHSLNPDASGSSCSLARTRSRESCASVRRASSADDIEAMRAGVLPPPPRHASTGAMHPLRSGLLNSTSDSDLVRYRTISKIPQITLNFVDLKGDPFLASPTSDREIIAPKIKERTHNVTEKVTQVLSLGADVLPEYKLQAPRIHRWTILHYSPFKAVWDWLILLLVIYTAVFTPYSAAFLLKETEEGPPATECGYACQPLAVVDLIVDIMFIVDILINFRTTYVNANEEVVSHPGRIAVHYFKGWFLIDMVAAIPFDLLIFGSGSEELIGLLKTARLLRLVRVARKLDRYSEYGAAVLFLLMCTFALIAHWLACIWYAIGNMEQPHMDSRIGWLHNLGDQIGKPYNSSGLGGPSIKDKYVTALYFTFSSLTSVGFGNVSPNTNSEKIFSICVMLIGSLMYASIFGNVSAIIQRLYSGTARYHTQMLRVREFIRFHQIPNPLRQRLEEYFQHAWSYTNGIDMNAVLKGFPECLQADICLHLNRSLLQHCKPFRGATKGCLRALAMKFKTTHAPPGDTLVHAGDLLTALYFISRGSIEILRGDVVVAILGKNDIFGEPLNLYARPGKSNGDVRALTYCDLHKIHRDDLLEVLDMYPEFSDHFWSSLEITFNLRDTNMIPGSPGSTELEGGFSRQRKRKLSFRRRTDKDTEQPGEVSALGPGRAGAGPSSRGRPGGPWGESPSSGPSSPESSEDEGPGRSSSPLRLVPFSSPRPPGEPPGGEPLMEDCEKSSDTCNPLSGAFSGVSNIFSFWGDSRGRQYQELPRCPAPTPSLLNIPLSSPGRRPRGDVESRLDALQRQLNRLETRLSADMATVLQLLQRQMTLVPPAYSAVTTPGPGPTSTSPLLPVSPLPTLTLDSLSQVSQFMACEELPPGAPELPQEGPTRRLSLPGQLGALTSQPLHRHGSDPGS
Records with an inconclusive call do not appear. Activity calls are given as the source filed them. Calls come from the whole dose curve; as a rule, active = well fitted inhibition curve with a large enough effect; inconclusive = small, poorly fitted or top-dose-only effect; inactive = flat fitted curve, though single readings scatter.
Measure: Potency

Observe how each entry below is paired with its result.
| Molecule | Measure | Observed value |
| --- | --- | --- |
| NNCc1cccc(O)c1 | Potency | inactive |
| O=[N+]([O-])c1ccc(Cl)c(Cl)c1 | Potency | inactive |
| CCCN1CCC[C@@H](c2cccc(C#N)c2)C1 | Potency | inactive |
| ClC(Cl)=C(Cl)Cl | Potency | inactive |
| Nc1ccc(Br)cc1 | Potency | inactive |
| O=C=NC1CCCCC1 | Potency | inactive |

*Q* What value of measured Potency is listed for Clc1cccc(C(Cl)(Cl)Cl)n1 ?
*A* inactive

*Q* I have this molecule here, C=CCOC(=O)c1ccccc1N , and I need its recorded Potency.
*A* inactive

----------
Parameter Z-AUC: see the listing below.
test: qHTS drug screen for cell cycle checkpoint inhibitors in PARPi-resistant BRCA-mutant ovarian cancer cell lines. (AID 1963452); details: PEO1/OlaR viability, CellTiter-Glo luminescence, 96 h; measured here: PEO4 Z-AUC; stronger effect = lower value
Kindly provide the number alone.

| Compound | Observed value |
| --- | --- |
| N#CC(O[C@@H]1O[C@H](CO[C@@H]2O[C@H](CO)[C@@H](O)[C@H](O)[C@H]2O)[C@@H](O)[C@H](O)[C@H]1O)c1ccccc1 (some centres undefined) | 0.881 |
| CC1(C)CC(O)CC(C)(C)N1O | 0.604 |
| C/C1=C/C[C@@H](/C(C)=C/c2csc(C)n2)OC(=O)C[C@H](O)C(C)(C)C(=O)[C@H](C)[C@@H](O)[C@@H](C)CCC1 | -2.82 |
| Cc1c(N)nc([C@H](CC(N)=O)NC[C@@H](N)C(N)=O)nc1C(=O)N[C@H](C(=O)N[C@@H](C)[C@H](O)[C@@H](C)C(=O)N[C@@H](C(=O)NCCc1nc(-c2nc(C(=O)NCCC[S+](C)C)cs2)cs1)[C@@H](C)O)C(O[C@H]1O[C@H](CO)[C@H](O)[C@@H](O)[C@H]1O[C@H]1O[C@H](CO)[C@@H](O)[C@H](OC(N)=O)[C@@H]1O)c1cnc[nH]1 (some centres undefined) | 0.233 |
| O=C(O)CNC(=O)C1C(=O)N(C2CCCCC2)C(=O)N(C2CCCCC2)C1=O | 0.437 |

Switching to the query record.
*Q* Query (compound): C/C=C(\C)C(=O)N[C@@H](c1ccccc1)[C@@H](O)C(=O)O[C@H]1C[C@@]2(O)[C@@H](OC(=O)c3ccccc3)[C@@H]3[C@]4(OC(C)=O)CO[C@@H]4C[C@H](O)[C@@]3(C)C(=O)[C@H](OC(C)=O)C(=C1C)C2(C)C ; field requested: Z-AUC
*A* -3.26
